// reported thermal shift delta Tm for each item listed
System: LOC_OS01G39600-cb002;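 further: purified Escherichia coli-expressed rice kinase domain construct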
procedure.summary: thermal shift delta Tm vs DMSO control; higher = stronger stabilization (binding)
test.parameters: 12.5 µM; protein concentration 2 µM
Write down the numeric answer in °C and omit the unit.

>  <compound>
CCNC(=O)Nc1ccc(-c2nc(N3CCOC[C@@H]3C)c3c(n2)C(C)(C)S(=O)(=O)C3)cc1

>  <endpoint.label>
thermal shift delta Tm

>  <measured.value>
-0.26

$$$$

Input: For the compound COc1cc(F)c(F)c(Nc2ccc(I)cc2F)c1NS(=O)(=O)C1(C[C@H](O)CO)CC1 [Refametinib (RDEA119, Bay 86-9766)] , what thermal shift delta Tm is on record?
Output: -0.03

Input: For the compound C[C@@H](N)[C@H]1CC[C@H](C(=O)Nc2ccncc2)CC1 , what thermal shift delta Tm is on record?
Output: 0.45

Input: For the compound COc1ccc(COc2cc3oc(=O)c4cc(C(C)O)ccc4c3cc2OC)cc1 (stereo unspecified) [Palomid 529 (P529)] , what thermal shift delta Tm is on record?
Output: -0.21

Input: For the compound CN1CCN(c2nc(C3=C(c4c[nH]c5ccccc45)C(=O)NC3=O)c3ccccc3n2)CC1 [Sotrastaurin] , what thermal shift delta Tm is on record?
Output: 3.02
